biological target: Rap guanine nucleotide exchange factor 3 (Homo sapiens); experiment: Counterscreen qHTS for antagonist of cAMP-regulated guanine nucleotide exchange factor 3 (EPAC1) (AID 1645888); settings: Rap1B-BODIPY-GDP nucleotide exchange, fluorescence; series mostly up to 154 µM;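 note: fluorescence loss as bound BODIPY-GDP is released from Rap1B; % of control where 0% means no effect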
Results filed as inconclusive are left out. Active and inactive are the calls of the source. Calls come from the whole dose curve; as a rule, active = well fitted inhibition curve with a large enough effect; inconclusive = small, poorly fitted or top-dose-only effect; inactive = no such curve, though single readings can be large or run the other way.
readoutName: activity change, negative = inhibition

>>> df
                                   molecule                                    system                   valuereported
0  Cc1ccc(NC(=O)CN2C(=O)C(c3ccc(C(C)(C)C)cc3)=NC2(C)C)cc1  Rap guanine nucleotide exchange factor 3 (Homo sapiens)                        inactive
1  COc1ccccc1C(=O)NNC(=O)CCCN1C(=O)/C(=C/c2cccs2)SC1=S  Rap guanine nucleotide exchange factor 3 (Homo sapiens)   10.7% [at 30.8 µM] (inactive)
2  COc1ccc(NC(=O)c2cc(-c3ccco3)nc3ccccc23)cc1S(=O)(=O)N1CCOCC1  Rap guanine nucleotide exchange factor 3 (Homo sapiens)                        inactive
3  Cc1ccc(NC(=O)N2CC3CCCN3c3ccccc32)cc1Cl (stereo not drawn)  Rap guanine nucleotide exchange factor 3 (Homo sapiens)                        inactive
4        COc1ccc(S(=O)(=O)N2CCCC2)c2ccccc12  Rap guanine nucleotide exchange factor 3 (Homo sapiens)  -10.4% [at 30.8 µM] (inactive)
5  CN(CC(=O)Nc1cccc(F)c1)C(=O)c1cccc(S(=O)(=O)N2CC3(C)CC2CC(C)(C)C3)c1 (stereo not drawn)  Rap guanine nucleotide exchange factor 3 (Homo sapiens)  -23.1% [at 30.8 µM] (inactive)
6  N#C/C(=C\C1=C(N2CCOCC2)C(=C/c2cccc([N+](=O)[O-])c2)/CC1)C(=O)Nc1ccccc1F  Rap guanine nucleotide exchange factor 3 (Homo sapiens)                        inactive
7    CC1=NN(c2ccc(Br)cc2)C(=O)/C1=C/c1cccs1  Rap guanine nucleotide exchange factor 3 (Homo sapiens)   29.1% [at 30.8 µM] (inactive)

Taken from PubChem BioAssay (NCATS).
